target or system: Bcl-xL protein (Homo sapiens)
Construct: made in house
Sequence (Q07817 whole entry): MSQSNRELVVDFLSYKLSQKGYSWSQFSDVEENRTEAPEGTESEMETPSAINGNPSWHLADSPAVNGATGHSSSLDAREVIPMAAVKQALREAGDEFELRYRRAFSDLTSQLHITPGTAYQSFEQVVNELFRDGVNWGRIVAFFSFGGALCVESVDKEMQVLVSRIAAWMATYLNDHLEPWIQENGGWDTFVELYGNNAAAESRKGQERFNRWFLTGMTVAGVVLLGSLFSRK
protocol summary: Surface plasmon resonance assay, immobilized Bcl-xL
Assay type: binding
assay setup: SPR; 10 μM compound; Bcl-xL immobilized 10000 RU
Procedure: The surface plasmon resonance experiments were performed using a Biacore 3000 (GE Healthcare Pittsburgh, PA) equipped with a research-grade CM5 sensor chip. The ligand (Bcl-xL) was immobilized using amine-coupling chemistry. […] All measurements were taken with flow cell 1 as a reference (i.e. sensorgram depicts “2–1 correction”) and corrected for DMSO bulk differences via the calibration curves. […] The equilibrium dissociation constant (KD) was determined by Kd/Ka.
measurement label: binding level to Bcl-xL protein in SPR

[[record]]
molecule = "COc1ccc(CCN(C)c2c3ccccc3nc3ccccc23)cc1OC"
measurement_label = "binding level to Bcl-xL protein in SPR"
reported = "almost no binding"

[[record]]
molecule = "CCOc1ccc2nc3cc(N)ccc3c(N)c2c1 [Compound A15, ETHACRIDINE LACTATE]"
measurement_label = "binding level to Bcl-xL protein in SPR"
reported = "could bind to Bcl-xL"

[[record]]
molecule = "COc1ccc(CCNc2ncnc3ccccc23)cc1OC"
measurement_label = "binding level to Bcl-xL protein in SPR"
reported = "almost no binding"

[[record]]
molecule = "Nc1ccc2cc3ccc(N)cc3nc2c1 [Compound A13, PROFLAVINE HEMISULFATE]"
measurement_label = "binding level to Bcl-xL protein in SPR"
reported = "could bind to Bcl-xL"

[[record]]
molecule = "COc1ccc2nc3cc(Cl)ccc3c(-c3ccc(F)cc3)c2c1"
measurement_label = "binding level to Bcl-xL protein in SPR"
reported = "almost no binding"

[[record]]
molecule = "COc1ccc2nc3ccccc3c(-c3ccc([N+](=O)[O-])cc3)c2c1"
measurement_label = "binding level to Bcl-xL protein in SPR"
reported = "almost no binding"


----------
The reader will find reported Dose-response (% Inhibition) 160 μM values listed item by item below.
target or system: Bcl-xL-Beclin 1 complex (Homo sapiens, UniProt Q07817)
Construct: made in house
protocol summary: Concentration response FP reconfirmation of HTS hits
Type: binding
assay setup: 160 μM; hits of first screen
measurement label: Dose-response (% Inhibition) 160 μM (%)

[[record]]
compound = "C[n+]1c2cc(N)ccc2cc2ccc(N)cc21.[Cl-] [Compound A26, ACRIFLAVINIUM HYDROCHLORIDE]"
measurement_label = "Dose-response (% Inhibition) 160 μM"
units_label = "%"
reported = 102.4

[[record]]
compound = "CCN(CC)CCNC(=O)COc1ccc(OC)cc1.Cl [Compound A32, MEFEXAMIDE HYDROCHLORIDE]"
measurement_label = "Dose-response (% Inhibition) 160 μM"
units_label = "%"
reported = 32.1

[[record]]
compound = "CCCCCCCCCCCCCCCCC(C(=O)O)C(O)(CC(=O)O)C(=O)O (stereo not shown) [Compound A19, AGARIC ACID]"
measurement_label = "Dose-response (% Inhibition) 160 μM"
units_label = "%"
reported = 20.9

[[record]]
compound = "CC[N+](C)(CC)CCC[n+]1c(-c2ccccc2)c2cc(N)ccc2c2ccc(N)cc21.[I-].[I-] [Compound A40, PROPIDIUM IODIDE]"
measurement_label = "Dose-response (% Inhibition) 160 μM"
units_label = "%"
reported = 18.3

